organism: Rattus norvegicus; experiment: DrugMatrix - Regimen: Daily Repeat; type: toxicity, organism-based, Sprague-Dawley; design: regimen Daily Repeat, gender Male, age 6-8 weeks; conditions: in vivo, po, 0 mg/kg, 120 h, tissue Plasma, route oral GAVAGE, dose level Control, time 5 day, vehicle 100 % WATER
Test Readout: LIPASE (u/L)
# value in u/L; strip the unit string

Query: Complete the entry with LIPASE for "NNC(=O)c1ccncc1"
Result: 10.17

Query: Complete the entry with LIPASE for COc1ccc(C(CN(C)C)C2(O)CCCCC2)cc1 (stereo not given)
Result: 10.17

Query: Complete the entry with LIPASE for "CN1CCC[C@H]1c1cccnc1"
Result: 10.17

Query: Complete the entry with LIPASE for Clc1ccc(C(c2ccccc2Cl)C(Cl)Cl)cc1 (stereo not given)
Result: 10.83

---

compounds and their reported ALKALINE PHOSPHATASE
organism: Rattus norvegicus; test: DrugMatrix - Regimen: Daily Repeat; assay type: toxicity, organism-based, Sprague-Dawley; parameters: regimen Daily Repeat, gender Male, age 6-8 weeks; conditions: in vivo, po, 2000 mg/kg, 72 h, tissue Plasma, route oral GAVAGE, dose level High, time 3 day, vehicle .5 % CMC
# value in u/L; strip the unit string

// solved cases for ALKALINE PHOSPHATASE follow
CC(C)[C@H](N)C(=O)OCCOCn1cnc2c(=O)[nH]c(N)nc21: 329.67
NCC(=O)O: 262.33
NCCCC[C@H](N[C@@H](CCc1ccccc1)C(=O)O)C(=O)N1CCC[C@H]1C(=O)O [LISINOPRIL ANHYDROUS]: 322.67

Query: Complete the entry with ALKALINE PHOSPHATASE for CC(=O)O[C@]1(C(C)=O)CC[C@H]2[C@@H]3C=C(Cl)C4=CC(=O)CC[C@]4(C)[C@H]3CC[C@@]21C [CHLORMADINONE ACETATE]
Result: 388.67

---

species on record: Rattus norvegicus; test: DrugMatrix - Regimen: Daily Repeat; type: toxicity, organism-based, Sprague-Dawley; design: regimen Daily Repeat, gender Male, age 6-8 weeks; details: in vivo, po, 0 mg/kg, 72 h, tissue Plasma, route oral GAVAGE, dose level Control, time 3 day, vehicle .5 % CMC
Test Readout: ASPARTATE AMINOTRANSFERASE (u/L)
# value in u/L; strip the unit string

// solved cases for ASPARTATE AMINOTRANSFERASE follow
Cc1c(-c2ccccc2)oc2c(C(=O)OCCN3CCCCC3)cccc2c1=O [FLAVOXATE]: 86.5
COc1c(C)c2c(c(O)c1C/C=C(\C)CCC(=O)OCCN1CCOCC1)C(=O)OC2 [MYCOPHENOLATE MOFETIL]: 112.83
O=C1CCc2cc(OCCCCc3nnnn3C3CCCCC3)ccc2N1: 68
CN1CCC[C@@H]1CCO[C@](C)(c1ccccc1)c1ccc(Cl)cc1: 112.83
C=C1CC[C@H](O)C/C1=C/C=C1\CCC[C@]2(C)[C@@H]([C@H](C)/C=C/[C@H](C)C(C)C)CC[C@@H]12: 76.17

Query: Complete the entry with ASPARTATE AMINOTRANSFERASE for "CC(/C=C1\SC(=S)N(CC(=O)O)C1=O)=C\c1ccccc1"
Result: 112.83

Query: Complete the entry with ASPARTATE AMINOTRANSFERASE for "O=c1[nH]cc(F)c(=O)[nH]1"
Result: 87.5

Query: Complete the entry with ASPARTATE AMINOTRANSFERASE for CCc1cccc2c3c([nH]c12)C(CC)(CC(=O)O)OCC3 (centres undefined)
Result: 62.83

Query: Complete the entry with ASPARTATE AMINOTRANSFERASE for "CC(C)[C@H](N)C(=O)OCCOCn1cnc2c(=O)[nH]c(N)nc21"
Result: 108.17
